- SUBJECT_OF_TEST: T1, human 5T4-His protein (human, UniProt Q13641 32-355)
- T1 construct: also called recombinant 5T4 protein (human 5T4-his tag); human 5T4 protein; not shown: His tag
- T1 sequence (looked up): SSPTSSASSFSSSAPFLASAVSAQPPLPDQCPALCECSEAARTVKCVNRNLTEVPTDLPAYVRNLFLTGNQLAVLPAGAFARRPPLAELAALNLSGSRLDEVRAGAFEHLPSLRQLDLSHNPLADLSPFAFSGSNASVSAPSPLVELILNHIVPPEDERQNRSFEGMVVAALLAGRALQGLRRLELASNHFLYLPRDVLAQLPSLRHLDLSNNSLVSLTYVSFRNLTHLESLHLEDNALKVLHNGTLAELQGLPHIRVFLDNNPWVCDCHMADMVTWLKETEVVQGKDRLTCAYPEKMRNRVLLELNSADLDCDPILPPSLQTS
- PROCEDURE_DETAILS: ELISA, coated 5T4-His
Consider the cut-off 2 nM. If the recorded EC50 is strictly smaller, the label is T; if not, the label is F.

Consider the binder Hu286B4-16 (antibody, V domains shown, humanized) VH: EVQLQESGPGLVKPSDTLSLTCAVSGYSITNNYYWNWIRQPPGKGLEWMGYITYDGSNNYNPSLKNRITVSRDTSKNQFSLKLSSVTAVDTAVYYCTRGGGQLRFDYWGQGTTVTVSS VL: DIQMTQSPSSLSASVGDRVTITCKASQSVSNEVTWYQQKPGKAPKLLIYYASNRYTGVPDRFSGSGSGTDFTFTISSLQPEDIATYYCQQDYSSPWTFGGGTKVEIK . Is its EC50 strictly less than 2 nM?
F

EC50 strictly < 2 nM for this binder? Hu286B4-10 (antibody, V domains shown, humanized) VH: EVQLQESGPGLVKPSDTLSLTCAVSGYSISNNYYWNWIRQPPGKGLEWIGYITYDGSNNYNPSLKNRITMSRDTSKNQFSLKLSSVTAVDTAVYYCARGGGQLRFDYWGQGTTVTVSS VL: SIVMTQSPSSLSASVGDRVTITCKASQSVSNEVTWYQQKPGKSPKMLIYYASNRYTGVPDRFSGSGYGTDFTFTISSLQPEDIATYFCQQDYSSPWTFGGGTKVEIK
F

Say whether its EC50 is strictly beneath 2 nM. Entry: Hu286B4-7 (antibody, V domains shown, humanized) VH: EVQLQESGPGLVKPSDTLSLTCAVSGYSISNNYYWNWIRQPPGKGLEWIGYITYDGSNNYNPSLKNRITMSRDTSKNQFSLKLSSVTAVDTAVYYCARGGGQLRFDYWGQGTTVTVSS VL: DIQMTQSPSSLSASVGDRVTITCKASQSVSNEVTWYQQKPGKAPKMLIYYASNRYTGVPDRFSGSGSGTDFTFTISSLQPEDIATYYCQQDYSSPWTFGGGTKVEIK
T

In the record for Hu286B4-3 (antibody, V domains shown, humanized) VH: EVQLQESGPGLVKPSDTLSLTCAVSGYSISNNYYWNWIRQPPGKGLEWIGYITYDGSNNYNPSLKNRVTMSRDTSKNQFSLKLSSVTAVDTAVYYCARGGGQLRFDYWGQGTTVTVSS VL: DIQMTQSPSSLSASVGDRVTITCKASQSVSNEVTWYQQKPGKAPKMLIYYASNRYTGVPDRFSGSGYGTDFTFTISSLQPEDIATYYCQQDYSSPWTFGGGTKVEIK , is EC50 less than 2 nM?
T

API: query returns whether the binder falls strictly under 2 nM in EC50. Query: Hu286B4-9 (antibody, V domains shown, humanized) VH: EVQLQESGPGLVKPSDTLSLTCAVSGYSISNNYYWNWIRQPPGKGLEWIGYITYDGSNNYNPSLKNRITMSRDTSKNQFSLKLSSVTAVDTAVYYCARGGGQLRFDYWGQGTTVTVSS VL: DIQMTQSPSSLSASVGDRVTITCKASQSVSNEVTWYQQKPGKSPKMLIYYASNRYTGVPDRFSGSGYGTDFTFTISSLQPEDIATYFCQQDYSSPWTFGGGTKVEIK
T

Data origin: patent US20250154277A1
